# credit: paper PMC5719405

Experiment: Single-dose pharmacokinetics of metapristone in rats (p.o. and i.v.), non-compartmental analysis
Assay type: in vivo, Sprague Dawley (SD) rats
Conditions: Sprague-Dawley, rat, plasma, po; male rats, p.o. 45 mg/kg; read-out: T max
METRIC_NAME: Tmax (h)
Only the number, expressed in h, is required.

Entry CC#C[C@]1(O)CC[C@H]2[C@@H]3CCC4=CC(=O)CCC4=C3[C@@H](c3ccc(NC)cc3)C[C@@]21C — recorded Tmax = 7.7

----------
Test: Single oral dose pharmacokinetics of metapristone in beagle dogs, non-compartmental analysis
Format: in vivo
Conditions: beagle, dog, plasma, po; female dogs, p.o. 22.5 mg/kg
METRIC_NAME: half-life (h)
Unit h implied. Number only.

For reference, reported half-life for CC#C[C@]1(O)CC[C@H]2[C@@H]3CCC4=CC(=O)CCC4=C3[C@@H](c3ccc(NC)cc3)C[C@@]21C stands at 7.19

----------
Assay: Single-dose pharmacokinetics of metapristone in rats (p.o. and i.v.), non-compartmental analysis
Assay type: in vivo, Sprague Dawley (SD) rats
Settings: Sprague-Dawley, rat, plasma, po; female rats, p.o. 45 mg/kg
METRIC_NAME: AUC(0-t) (ng·h/mL)
Only the number, expressed in ng·h/mL, is required.

// field: AUC(0-t); key: CC#C[C@]1(O)CC[C@H]2[C@@H]3CCC4=CC(=O)CCC4=C3[C@@H](c3ccc(NC)cc3)C[C@@]21C [metapristone, N-monodemethyl mifepristone] ; value = 9630

----------
Experiment: Single oral dose pharmacokinetics of metapristone in beagle dogs, non-compartmental analysis
Format: in vivo
Settings: beagle, dog, plasma, po; female dogs, p.o. 22.5 mg/kg
METRIC_NAME: AUC(0-inf) (ng·h/mL)
Give just the numeric value; ng·h/mL need not be written.

Looking up CC#C[C@]1(O)CC[C@H]2[C@@H]3CCC4=CC(=O)CCC4=C3[C@@H](c3ccc(NC)cc3)C[C@@]21C , I see its AUC(0-inf) listed as 2560

----------
Experiment: Single-dose pharmacokinetics of metapristone in rats (p.o. and i.v.), non-compartmental analysis
Format: in vivo, Sprague Dawley (SD) rats
Conditions: Sprague-Dawley, rat, plasma, po; female rats, p.o. 45 mg/kg; read-out: F
METRIC_NAME: bioavailability (%)
Quick reminder: number only, in %, skip the unit.

Data point: CC#C[C@]1(O)CC[C@H]2[C@@H]3CCC4=CC(=O)CCC4=C3[C@@H](c3ccc(NC)cc3)C[C@@]21C ; bioavailability = 22

----------
Assay: Single oral dose pharmacokinetics of metapristone in beagle dogs, non-compartmental analysis
Assay type: in vivo
Conditions: beagle, dog, plasma, po; female dogs, p.o. 22.5 mg/kg
METRIC_NAME: AUC(0-t) (ng·h/mL)
The reply should contain only the number, in ng·h/mL.

Consider CC#C[C@]1(O)CC[C@H]2[C@@H]3CCC4=CC(=O)CCC4=C3[C@@H](c3ccc(NC)cc3)C[C@@]21C [metapristone, N-monodemethyl mifepristone] . Its measured AUC(0-t) is 2400

----------
Test: Single-dose pharmacokinetics of metapristone in rats (p.o. and i.v.), non-compartmental analysis
Format: in vivo, Sprague Dawley (SD) rats
Details: Sprague-Dawley, rat, plasma, po; male rats, p.o. 45 mg/kg
METRIC_NAME: half-life

Kindly note the recorded half-life for CC#C[C@]1(O)CC[C@H]2[C@@H]3CCC4=CC(=O)CCC4=C3[C@@H](c3ccc(NC)cc3)C[C@@]21C , which is 8.11 h
